FYI, the data here is from patent US20190008947A1.

molecular target: A*24:02, P16209; settings: modification not given
measurement-type: IC50 (nM)
Report only the number, with the unit nM understood.

Req: Entry SYSMCTGKF […, serotype 2] has what IC50?
Resp: 115
